Each item that follows carries a reported inhibition at 10 µM.
Biological target: bradykinin 1 receptor (B1R) of the rat (Rattus norvegicus, UniProt P97583)
Construct: expressed in transfected cells; host or cells: CHO K1 cells
Sequence (P97583 1-337): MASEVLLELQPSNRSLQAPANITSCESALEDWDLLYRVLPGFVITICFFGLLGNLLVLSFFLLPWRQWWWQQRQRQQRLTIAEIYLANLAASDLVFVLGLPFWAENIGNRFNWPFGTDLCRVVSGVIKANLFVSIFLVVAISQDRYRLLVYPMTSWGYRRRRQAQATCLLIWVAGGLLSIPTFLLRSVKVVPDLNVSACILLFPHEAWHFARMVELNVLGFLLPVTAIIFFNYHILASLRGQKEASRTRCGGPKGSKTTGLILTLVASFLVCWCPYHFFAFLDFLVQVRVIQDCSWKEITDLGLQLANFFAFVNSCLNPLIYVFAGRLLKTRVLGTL
Test: Functional investigation on the rat bradykinin 1 receptor (B1R), Ca2+ FLIPR assay in CHO K1 rB1R cells
Assay type: cell-based
Details: CHO-K1, B1R antagonism rat; test substance 10 μM; % inhibition compared with the maximum achievable inhibition; read-out: B1R Ant. r [10 μM] % Inhibition
observable: inhibition at 10 µM (%)

INSERT INTO results (compound, targetorsystem, recordedresult) VALUES
  ('COc1cc(C)c(S(=O)(=O)N2CCCCC2COCC(=O)N2CCC(C(c3cccc(F)c3)N3CCN(C)CC3)CC2)c(C)c1 (stereo not shown) [Example 800]', 'bradykinin 1 receptor (B1R) of the rat (Rattus norvegicus, UniProt P97583)', 97),
  ('CN1CCN(C(c2ccc(F)cc2)C2CCN(C(=O)COCC3CCc4ccccc4N3S(=O)(=O)c3ccc(Cl)c(Cl)c3)CC2)CC1 (stereo not shown) [Example 808]', 'bradykinin 1 receptor (B1R) of the rat (Rattus norvegicus, UniProt P97583)', 75),
  ('COc1cc(C)c(S(=O)(=O)N(C)CCOCC(=O)N2CCC(C(c3ccc(F)cc3)N3CCN(C)CC3)CC2)c(C)c1 (stereo not shown) [Example 804]', 'bradykinin 1 receptor (B1R) of the rat (Rattus norvegicus, UniProt P97583)', 100),
  ('COc1cc(C)c(S(=O)(=O)N2CCCCC2COCC(=O)N2CCC(C(c3ccccc3)N3CCN(C)CC3)CC2)c(C)c1 (stereo not shown) [Example 807]', 'bradykinin 1 receptor (B1R) of the rat (Rattus norvegicus, UniProt P97583)', 98);

====

Target: bradykinin 1 receptor (B1R) of the rat (Rattus norvegicus, UniProt P97583)
Construct: expressed in transfected cells; host or cells: CHO K1 cells
Sequence (P97583 1-337): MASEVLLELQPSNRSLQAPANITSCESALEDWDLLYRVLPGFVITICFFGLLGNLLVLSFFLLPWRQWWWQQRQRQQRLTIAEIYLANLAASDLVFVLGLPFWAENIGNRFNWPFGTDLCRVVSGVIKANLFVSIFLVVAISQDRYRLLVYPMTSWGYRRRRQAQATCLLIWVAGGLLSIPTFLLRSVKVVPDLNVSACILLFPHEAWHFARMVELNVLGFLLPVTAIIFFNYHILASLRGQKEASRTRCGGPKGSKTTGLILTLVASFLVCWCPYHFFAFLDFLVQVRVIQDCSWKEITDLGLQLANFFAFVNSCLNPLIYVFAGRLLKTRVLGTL
Assay: Functional investigation on the rat bradykinin 1 receptor (B1R), Ca2+ FLIPR assay in CHO K1 rB1R cells
Format: cell-based
Conditions: CHO-K1, B1R antagonism rat; test substance 10 μM; Ca2+ FLIPR, CHO K1 rB1R cells; read-out: B1R Ant. r [10 μM] % Inhibition
Each item that follows carries a reported inhibition at 10 µM.
observable: inhibition at 10 µM (%)

INSERT INTO results (molecule, recordedresult) VALUES
  ('COc1ccc(S(=O)(=O)N2CCCCC2COCC(=O)NCC2CCC(C(c3ccccc3)N(C)C)CC2)cc1OC (stereo not shown) [Example 150]', 10),
  ('COc1cc(C)c(S(=O)(=O)N(C)CCOCC(=O)NC2CCC(C(c3ccccc3)N3CCCCC3)CC2)c(C)c1C (stereo not shown) [Example 617]', 48),
  ('COc1ccc(S(=O)(=O)N2CCCCC2COCC(=O)NCCC2CCC(C(c3cccs3)N(C)C)CC2)cc1 (stereo not shown) [Example 30]', 72),
  ('CN(C)C(c1ccccc1)C1CCC(NC(=O)CNC(=O)c2nc(-c3ccc(C(C)(C)C)cc3)no2)CC1 (stereo not shown) [Example 766]', -9);

====

Molecular target: bradykinin 1 receptor (B1R) of the rat (Rattus norvegicus, UniProt P97583)
Construct: expressed in transfected cells; host or cells: CHO K1 cells
Sequence (P97583 1-337): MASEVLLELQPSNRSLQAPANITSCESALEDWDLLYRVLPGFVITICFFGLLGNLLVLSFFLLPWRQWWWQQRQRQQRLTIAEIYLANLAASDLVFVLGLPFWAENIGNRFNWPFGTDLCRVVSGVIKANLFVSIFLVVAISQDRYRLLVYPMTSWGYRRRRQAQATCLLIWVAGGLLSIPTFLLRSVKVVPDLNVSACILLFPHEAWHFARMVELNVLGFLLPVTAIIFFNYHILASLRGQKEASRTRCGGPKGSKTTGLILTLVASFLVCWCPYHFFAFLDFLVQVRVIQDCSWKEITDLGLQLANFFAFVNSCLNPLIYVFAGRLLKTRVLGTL
Experiment: Functional investigation on the rat bradykinin 1 receptor (B1R), Ca2+ FLIPR assay in CHO K1 rB1R cells
Type: cell-based
Details: B1R antagonism rat; test substance 10 μM; Ca2+ FLIPR, CHO K1 rB1R cells
Each item that follows carries a reported B1R Ant. r [10 μM] % Inhibition.
observable: B1R Ant. r [10 μM] % Inhibition (%)

INSERT INTO measurements (compound, observable, recordedresult) VALUES
  ('Cc1cc(C)c(S(=O)(=O)N(C)CCOCC(=O)NC2CCC(C(c3cccs3)N(C)C)CC2)c(C)c1 (stereo not shown) [Example 235]', 'B1R Ant. r [10 μM] % Inhibition', '−8'),
  ('COc1cc(C)c(S(=O)(=O)N(CCOCC(=O)NCC2CCC(C(c3cccc(F)c3)N(C)C)CC2)Cc2ccccc2)c(C)c1C (stereo not shown) [Example 414]', 'B1R Ant. r [10 μM] % Inhibition', 10),
  ('CN(C)C(c1ccc(Cl)cc1)C1CCC(CCNC(=O)COC2CCN(S(=O)(=O)c3ccccc3)CC2)CC1 (stereo not shown) [Example 443]', 'B1R Ant. r [10 μM] % Inhibition', '−1'),
  ('Cc1ccc(S(=O)(=O)N2CCC(OCC(=O)NCCC3CCC(C(c4cccc(F)c4)N(C)C)CC3)C2)cc1 (stereo not shown) [Example 216]', 'B1R Ant. r [10 μM] % Inhibition', 12),
  ('CN(C)C(c1cccs1)C1CCC(NC(=O)COCCN2CCN(S(=O)(=O)c3ccccc3)CC2)CC1 (stereo not shown) [Example 341]', 'B1R Ant. r [10 μM] % Inhibition', 18),
  ('CN(C)C(c1ccc(Cl)cc1)C1CCC(CNC(=O)COCCN(Cc2ccccc2)S(=O)(=O)c2ccccc2)CC1 (stereo not shown) [Example 343]', 'B1R Ant. r [10 μM] % Inhibition', '−15'),
  ('CN(C)C(CCc1ccccc1)C1CCC(CNC(=O)COC2CCN(S(=O)(=O)c3ccc(F)cc3)C2)CC1 (stereo not shown) [Example 574]', 'B1R Ant. r [10 μM] % Inhibition', 26);

====

Biological target: bradykinin 1 receptor (B1R) of the rat (Rattus norvegicus)
Construct: expressed in transfected cells; host or cells: CHO K1 cells
Sequence (P97583 1-337): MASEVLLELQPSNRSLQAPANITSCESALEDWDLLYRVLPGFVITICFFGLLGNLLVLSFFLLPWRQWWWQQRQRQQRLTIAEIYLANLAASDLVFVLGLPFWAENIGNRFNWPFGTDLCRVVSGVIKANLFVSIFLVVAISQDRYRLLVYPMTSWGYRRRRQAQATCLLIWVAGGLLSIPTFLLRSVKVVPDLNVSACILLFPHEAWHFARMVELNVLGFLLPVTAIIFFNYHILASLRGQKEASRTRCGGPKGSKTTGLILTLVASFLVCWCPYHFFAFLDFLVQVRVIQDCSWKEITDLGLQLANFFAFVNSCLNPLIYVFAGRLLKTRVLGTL
Experiment: Functional investigation on the rat bradykinin 1 receptor (B1R), Ca2+ FLIPR assay in CHO K1 rB1R cells
Assay type: cell-based
Conditions: B1R antagonism rat; test substance 10 μM; Ca2+ FLIPR, CHO K1 rB1R cells
Each item that follows carries a reported B1R Ant. r [10 μM] % Inhibition.
observable: B1R Ant. r [10 μM] % Inhibition (%)

INSERT INTO results (molecule, targetorsystem, recordedresult) VALUES
  ('CN(C)C(c1cccc(F)c1)C1CCC(CCNC(=O)COC2CCCN(S(=O)(=O)c3ccccc3)C2)CC1 (centres unmarked) [Example 326]', 'bradykinin 1 receptor (B1R) of the rat (Rattus norvegicus)', '−6'),
  ('CN(C)C(c1ccc(F)cc1)C1CCC(CCNC(=O)COC2CCN(S(=O)(=O)c3ccc(F)cc3)C2)CC1 (centres unmarked) [Example 518]', 'bradykinin 1 receptor (B1R) of the rat (Rattus norvegicus)', 26),
  ('COc1ccc(S(=O)(=O)N2CCCCC2COCC(=O)NCCC2CCC(C(c3ccc(F)cc3)N(C)C)CC2)cc1OC (centres unmarked) [Example 462]', 'bradykinin 1 receptor (B1R) of the rat (Rattus norvegicus)', '−13'),
  ('CN(C)C(c1ccc(Cl)cc1)C1CCC(CCNC(=O)COCCN(C)S(=O)(=O)c2c(Cl)cccc2Cl)CC1 (centres unmarked) [Example 274]', 'bradykinin 1 receptor (B1R) of the rat (Rattus norvegicus)', 61),
  ('CN(C)C(c1ccc(F)cc1)C1CCC(NC(=O)COC2CCN(S(=O)(=O)c3ccc(F)cc3)C2)CC1 (centres unmarked) [Example 381]', 'bradykinin 1 receptor (B1R) of the rat (Rattus norvegicus)', 12),
  ('CN(C)C(c1ccccc1)C1CCC(NC(=O)COCC2CCCN2S(=O)(=O)c2c(Cl)cc(Cl)cc2Cl)CC1 (centres unmarked) [Example 613]', 'bradykinin 1 receptor (B1R) of the rat (Rattus norvegicus)', 34),
  ('CN(C)C(c1cccc(F)c1)C1CCC(CCNC(=O)COCCC2CCN(S(=O)(=O)c3ccccc3)CC2)CC1 (centres unmarked) [Example 543]', 'bradykinin 1 receptor (B1R) of the rat (Rattus norvegicus)', 15),
  ('COc1ccc(S(=O)(=O)N2CCCCC2COCC(=O)NCC2CCC(C(c3ccc(F)cc3)N(C)C)CC2)cc1 (centres unmarked) [Example 345]', 'bradykinin 1 receptor (B1R) of the rat (Rattus norvegicus)', 77),
  ('CN(C)C(c1ccc(F)cc1)C1CCC(CCNC(=O)COCCN(C)S(=O)(=O)c2ccc(Cl)cc2Cl)CC1 (centres unmarked) [Example 586]', 'bradykinin 1 receptor (B1R) of the rat (Rattus norvegicus)', 76),
  ('COc1cc(C)c(S(=O)(=O)N2CCC(OCC(=O)NCCC3CCC(C(c4ccc(Cl)cc4)N(C)C)CC3)C2)c(C)c1C (centres unmarked) [Example 412]', 'bradykinin 1 receptor (B1R) of the rat (Rattus norvegicus)', '−5'),
  ('CN(C)C(c1ccc(F)cc1)C1CCC(CCNC(=O)COCCN(C)S(=O)(=O)c2ccc(OC(F)(F)F)cc2)CC1 (centres unmarked) [Example 446]', 'bradykinin 1 receptor (B1R) of the rat (Rattus norvegicus)', 33),
  ('CN(C)C(CCc1ccccc1)C1CCC(CNC(=O)COC2CCN(S(=O)(=O)c3ccc(Cl)cc3Cl)C2)CC1 (centres unmarked) [Example 496]', 'bradykinin 1 receptor (B1R) of the rat (Rattus norvegicus)', 35),
  ('COc1ccc(S(=O)(=O)N2CCC(OCC(=O)NCCC3CCC(C(c4cccc(F)c4)N(C)C)CC3)C2)cc1OC (centres unmarked) [Example 262]', 'bradykinin 1 receptor (B1R) of the rat (Rattus norvegicus)', 36),
  ('COc1cc(C)c(S(=O)(=O)N2CCN(CCOCC(=O)NCC3CCC(C(c4ccc(F)cc4)N(C)C)CC3)CC2)c(C)c1C (centres unmarked) [Example 366]', 'bradykinin 1 receptor (B1R) of the rat (Rattus norvegicus)', 16);
